pIC50 overview
- Target desc: recombinant human 15-PGDH (Homo sapiens, UniProt P15428)
- Construct: purchased R&D Systems
- Sequence (P15428 1-266): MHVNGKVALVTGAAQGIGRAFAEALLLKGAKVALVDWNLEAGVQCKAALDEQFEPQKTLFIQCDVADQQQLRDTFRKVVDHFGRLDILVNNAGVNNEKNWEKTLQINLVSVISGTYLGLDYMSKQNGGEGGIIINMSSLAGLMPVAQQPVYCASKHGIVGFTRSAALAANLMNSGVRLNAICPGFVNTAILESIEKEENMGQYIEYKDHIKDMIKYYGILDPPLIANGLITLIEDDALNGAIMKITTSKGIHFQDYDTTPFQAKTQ
- Assay remarks: 15-PGDH enzyme inhibition test
- Format: biochemical
- Measurement conditions: 4 nM recombinant human 15-PGDH, 30 μM PGE2, 1 mM NAD+, 60 minutes after starting the reaction; read-out: IC50 Value
pIC50: −log10 of the molar value.

In the examples that follow, each entry is paired with its recorded pIC50.
Cn1nc2cc(N3CCCc4cc(C(=O)N5CCC5)cnc43)ccn2c1=O; > 8.00
CC1CN(C(=O)c2cnc3c(c2)OCCN3c2ccc3c(c2)CN(C)C3=O)CCC1(F)F (centres unmarked); > 8.00
CNC(=O)C1CCC(N2CCOc3cc(C(=O)N4CCCCC4)ccc32)CC1 (centres unmarked); 7.00 to 8.00
O=C(c1cnc2c(c1)OCCN2c1ccn2c(=O)n(Cc3ccccc3)nc2c1)N1CCCCC1; > 8.00
CC(=O)N1CCN(C(=O)c2cnc3c(c2)OCCN3c2ccc3c(c2)CN(C)C3=O)CC1; < 7.00
COc1cc(N2CCOc3cc(C(=O)N4CC=CCC4)ccc32)ccc1C(N)=O; > 8.00
CNC(=O)c1ccc(N2CCCc3cc(C(=O)N4CCCCC4)cnc32)cc1F; > 8.00
Cn1nc2cc(N3CCOc4cc(C(=O)N5CCCC6(CCC6)C5)cnc43)ccn2c1=O; > 8.00

Now look at this entry.
Notebook: `O=C(c1ccc2c(c1)OCCN2C1CCCCC1)N1CCCCC1` , pIC50 read as 7.00 to 8.00

All figures here come from patent US12577217B2.
